Origin of values: patent US5631222A

# tested.on: endothelin receptor (Bos taurus)
# Construct: the suspension was used as a membrane fraction liquid; from tissue; host or cells: bovine cerebellum membrane fraction
# Sequence (P28088 27-441): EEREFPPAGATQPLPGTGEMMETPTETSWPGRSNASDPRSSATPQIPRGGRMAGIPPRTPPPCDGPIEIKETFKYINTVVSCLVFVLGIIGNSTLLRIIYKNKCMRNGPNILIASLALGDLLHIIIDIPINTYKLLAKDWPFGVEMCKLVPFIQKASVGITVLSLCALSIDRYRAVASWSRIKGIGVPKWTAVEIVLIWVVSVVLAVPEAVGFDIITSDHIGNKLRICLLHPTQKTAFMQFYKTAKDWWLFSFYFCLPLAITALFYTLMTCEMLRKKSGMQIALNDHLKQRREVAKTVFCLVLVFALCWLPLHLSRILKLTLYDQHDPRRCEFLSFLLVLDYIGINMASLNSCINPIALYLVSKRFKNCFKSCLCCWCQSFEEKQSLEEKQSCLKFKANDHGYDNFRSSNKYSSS
# protocol.details: Endothelin receptor-antagonizing activity: inhibition of 125I-endothelin-1 binding to bovine cerebellum membrane fraction
# recorded.conditions: 125I-Endothelin-1, bovine cerebellum membrane fraction, 25° C. for 2 hours; read-out: IC50: Concentration causing 50% inhibition of endothelin1 binding
endpoint: IC50 (nM)
Numbers only here, please. The scale is nM.

Per the records, this substance ( H-NWHGTAPDWVYFAHLDIIW-OH [Compound 7] ) has IC50 equal to 0.1

The recorded IC50 for entry H-GNWHGTAPDWFAHLDIIW-OH [Compound 11] equals 6.1

Summary for this substance, H-GNWHGTAPDWVYFAHLTYIW-OH [Compound 19] : IC50 is 1.2

So for H-GNWHGTAPDWVYFAHLNYIW-OH [Compound 20] , the logged IC50 turned out to be 12

The recorded IC50 for entry H-GDWKGTSPDWVYFAHLDIIW-OH [Compound 6] equals 0.11

The reported IC50 of the substance H-GNWHGTAPDWVYFAHLEIIW-OH [Compound 43] was 17

Briefly, IC50 measured for H-WHGTAPDWVYFAHLDIIW-OH [Compound 8] : 0.076

Lab note: measured IC50 of H-GNWHGTAPDWVYFAHLDIIF-OH [Compound 5] was 11

The measured IC50 associated with H-GNWHGGAPDWVYFAHLDIIW-OH [Compound 3] reads 0.064

Entry H-GNWHGTAPDWVYFAHLSMIW-OH [Compound 21] , IC50 reported as 0.96

Per the records, this substance ( H-GNWHGTAPDWVYFAHLTMIW-OH [Compound 18] ) has IC50 equal to 1.7

Entry H-GNWHGTAPDWVYFAHLTLIW-OH [Compound 13] — recorded IC50 = 2.9

# substance H-GNWHGTAADWVYFAHLSMIW-OH [Compound 46] ; its IC50 = 0.8

Record H-GNWHGTAPDWVYFAHLDLIW-OH [Compound 16] . Reported IC50: 5.4

Reported IC50 ( H-GNWHGTAPDWYFAHLDIIW-OH [Compound 10] ) = 0.57

So for H-HGTAPDWVYFAHLDIIW-OH [Compound 9] , the logged IC50 turned out to be 0.088

response.value for H-GNWHTTAPDWVYFAHLDIIW-OH [Compound 2] (field: IC50) = 0.061

Memo: H-GNWHGTAPDAVYFAHLDIIW-OH [Compound 4] , reported IC50: 0.22

Notebook: H-GNWHGTAPDWPYFAHLDIIW-OH [Compound 47] , IC50 read as 4.2
